Measured values drawn from patent US20260285859A1 for this set.

WEE1 (Homo sapiens, UniProt P30291): reported IC50 for various molecules.
Sequence (P30291 whole entry): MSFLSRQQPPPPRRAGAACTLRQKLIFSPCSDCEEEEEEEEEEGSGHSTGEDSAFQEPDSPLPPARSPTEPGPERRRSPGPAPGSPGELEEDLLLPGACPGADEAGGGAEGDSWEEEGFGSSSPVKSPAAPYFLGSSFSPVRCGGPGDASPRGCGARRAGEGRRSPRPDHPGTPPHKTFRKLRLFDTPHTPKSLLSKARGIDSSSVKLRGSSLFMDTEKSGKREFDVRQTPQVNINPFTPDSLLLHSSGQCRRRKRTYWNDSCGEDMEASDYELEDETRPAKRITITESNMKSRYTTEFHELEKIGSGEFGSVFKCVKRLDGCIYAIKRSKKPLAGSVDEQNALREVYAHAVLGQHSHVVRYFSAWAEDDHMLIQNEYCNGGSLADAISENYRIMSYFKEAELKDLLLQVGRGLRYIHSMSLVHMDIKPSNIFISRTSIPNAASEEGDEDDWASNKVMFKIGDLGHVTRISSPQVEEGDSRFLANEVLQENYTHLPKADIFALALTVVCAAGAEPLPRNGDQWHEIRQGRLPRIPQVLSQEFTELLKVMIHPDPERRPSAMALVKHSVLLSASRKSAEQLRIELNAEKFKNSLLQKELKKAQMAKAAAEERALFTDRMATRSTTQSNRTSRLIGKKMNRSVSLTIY

[2H]C([2H])([2H])N(c1cc2c(N)ncnc2c(-c2c(C)ccc(O)c2C)n1)C1CC1	100 to 1000 nM
Cc1ccc(O)c(C)c1-c1nc(-c2ccncc2)cc2c(N)ncnc12	100 to 1000 nM
Cc1ccc(O)c(C)c1-c1nc(C(=O)N2CCCC2)cc2c(N)ncnc12 (single isomer, unassigned)	> 1000 nM

Exercise: Would you kindly share the measured IC50 for Cc1ccc(O)c(C)c1-c1nc(C(F)F)cc2c(N)ncnc12 (single isomer, unassigned) ?
Solution: > 1000 nM

Exercise: Would you kindly share the measured IC50 for COC[C@H]1CCN(c2cc3c(N)ncnc3c(-c3c(C)ccc(O)c3C)n2)C1 (single isomer, unassigned) ?
Solution: > 1000 nM

Exercise: Would you kindly share the measured IC50 for `Cc1ccc(O)c(C)c1-c1cc(C2=CCOCC2)nc2c(N)ncnc12` ?
Solution: 100 to 1000 nM

Exercise: Would you kindly share the measured IC50 for CNc1cc2c(N)ncnc2c(-c2c(C)ccc(O)c2C)n1 (single isomer, unassigned) ?
Solution: > 1000 nM

Exercise: Would you kindly share the measured IC50 for Cc1ccc(O)c(C)c1-c1nc(N2CCC(O)CC2)cc2c(N)ncnc12 (single isomer, unassigned) ?
Solution: > 1000 nM

Exercise: Would you kindly share the measured IC50 for Cc1cc2c(C(N)=O)c(N)n(-c3c(C)ccc(O)c3C)c2nc1C [RP-6306, Lunresertib, reference compound] ?
Solution: 10 to 100 nM

Exercise: Would you kindly share the measured IC50 for `CO[C@H]1C[C@H](N(C)c2cc3c(N)ncnc3c(-c3c(C)ccc(O)c3C)n2)C1` ?
Solution: > 1000 nM

Exercise: Would you kindly share the measured IC50 for `Cc1cc2c(N)ncnc2c(-c2c(C)ccc(O)c2C)n1` ?
Solution: > 1000 nM

Exercise: Would you kindly share the measured IC50 for COc1cc2c(N)ncnc2c(-c2c(C)ccc(O)c2C)n1 (single isomer, unassigned) ?
Solution: > 1000 nM

Exercise: Would you kindly share the measured IC50 for Cc1ccc(O)c(C)c1-c1nc(N2CC[C@](C)(O)C2)cc2c(N)ncnc12 (single isomer, unassigned) ?
Solution: > 1000 nM

Exercise: Would you kindly share the measured IC50 for Cc1ccc(O)c(C)c1-c1nc(N(C)C2CC2)cc2c(N)ncnc12 (single isomer, unassigned) ?
Solution: 100 to 1000 nM

----------
Molecular target: PKMYT1 (Homo sapiens)
Sequence (Q99640 1-499): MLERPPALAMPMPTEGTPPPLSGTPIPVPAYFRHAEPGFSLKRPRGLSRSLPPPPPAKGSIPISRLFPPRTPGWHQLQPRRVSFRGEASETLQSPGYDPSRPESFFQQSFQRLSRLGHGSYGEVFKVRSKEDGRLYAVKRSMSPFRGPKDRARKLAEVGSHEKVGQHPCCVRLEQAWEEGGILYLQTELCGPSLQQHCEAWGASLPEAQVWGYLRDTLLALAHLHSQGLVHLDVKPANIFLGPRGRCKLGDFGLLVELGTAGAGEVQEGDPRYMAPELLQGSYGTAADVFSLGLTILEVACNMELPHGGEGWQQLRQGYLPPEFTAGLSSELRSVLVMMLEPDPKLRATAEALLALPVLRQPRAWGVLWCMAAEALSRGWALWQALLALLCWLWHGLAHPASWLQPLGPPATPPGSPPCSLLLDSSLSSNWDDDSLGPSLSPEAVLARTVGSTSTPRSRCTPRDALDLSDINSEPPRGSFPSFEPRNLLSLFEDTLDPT
Below, each of the compounds is paired with its reported IC50 value.

Worked cases, IC50 given:
Cc1ccc(O)c(C)c1-c1nc(N(C)C(C)C)cc2c(N)ncnc12 (single isomer, unassigned)	< 10 nM
Cc1ccc(O)c(C)c1-c1nc(C(F)F)cc2c(N)ncnc12 (single isomer, unassigned)	10 to 100 nM
Cc1ccc(O)c(C)c1-c1nc(N(C)CCC#N)cc2c(N)ncnc12 (single isomer, unassigned)	< 10 nM

Exercise: Would you kindly share the measured IC50 for Cc1ccc(O)c(C)c1-c1nc(N2CCCC(F)(F)C2)cc2c(N)ncnc12 (single isomer, unassigned) ?
Solution: < 10 nM
